Molecular target: human GPR119 (Homo sapiens, UniProt Q8TDV5)
Sequence (Q8TDV5 1-335): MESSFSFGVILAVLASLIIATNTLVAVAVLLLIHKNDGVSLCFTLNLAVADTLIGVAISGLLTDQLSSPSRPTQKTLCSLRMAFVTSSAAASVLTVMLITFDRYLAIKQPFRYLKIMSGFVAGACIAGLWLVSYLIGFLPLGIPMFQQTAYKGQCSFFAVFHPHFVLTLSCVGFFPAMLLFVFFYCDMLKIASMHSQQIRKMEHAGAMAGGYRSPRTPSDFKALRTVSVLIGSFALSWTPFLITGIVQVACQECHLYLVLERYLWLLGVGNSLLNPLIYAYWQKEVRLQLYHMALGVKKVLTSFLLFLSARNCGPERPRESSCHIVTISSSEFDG
Assay: Cyclic AMP Assay in Stable Cell Line (HTRF)
Conditions: Flp-In-CHO-hGPR119 cells, intracellular cAMP, 30 minutes at 37° C., 1 mM IBMX
Description: Flp-In-CHO cells (Invitrogen, Cat. #R758-07) are maintained in Ham's F12 medium supplemented with 10% fetal bovine serum, 1% antibiotic mixture and 2 mM L-glutamine. […] To test the activity of compounds of the invention, Flp-In-CHO-hGPR119 cells are harvested and resuspended in DMEM plus 3% lipid-depleted fetal bovine serum. […] The plates are incubated at room temperature for 1 hour and read on a HTRF reader according to the manufacturer's instruction.
pEC50: −log10 of the molar value.
Recorded metric: pEC50

Observe how each entry below is paired with its result.
1. Cn1nc(C(F)(F)F)nc1CN1CC(Oc2c(F)cc(C3CCN(S(C)(=O)=O)CC3)cc2F)C1 ... 6.61
2. CS(=O)(=O)N1CCC(c2cc(F)c(OC3CN(Cc4nc(C(F)(F)F)no4)C3)c(F)c2)CC1 ... 7.26

a: CS(=O)(=O)N1CC=C(c2cc(F)c(OC3CN(Cc4ccc(C(F)(F)F)cc4)C3)c(F)c2)CC1
b: CS(=O)(=O)N1CCN(c2cc(F)c(OC3CN(Cc4ccc(C(F)(F)F)cc4)C3)c(F)c2)CC1
query: When the recorded pEC50 values are compared, which is smaller: that of a or that of b ? Label of pick, please.
result: b
(b: 6.84, a: 7.92)

A: CS(=O)(=O)N1CCC(c2ccc(OC3CCN(Cc4nc(C(F)(F)F)no4)CC3)c(F)c2)CC1
B: CS(=O)(=O)N1CCC(c2cc(F)c(OC3CN(Cc4nc(C5CC5)no4)C3)c(F)c2)CC1
query: When the recorded pEC50 values are compared, which is smaller: that of A or that of B ? Reply briefly: the label of your chosen item.
result: B
(B: 6.88, A: 7.43)

====

biological target: human GPR119 (Homo sapiens, UniProt Q8TDV5); assay: Cyclic AMP Assay in Stable Cell Line (HTRF); settings: Flp-In-CHO-hGPR119 cells, intracellular cAMP, 30 minutes at 37° C., 1 mM IBMX
pEC50: −log10 of the molar value.
Recorded metric: pEC50

Check out these entries, answers already filled in.
1) Cn1nc(C(F)(F)F)cc1CN1CC(Oc2c(F)cc(C3CCN(S(C)(=O)=O)CC3)cc2F)C1 ... 7.01
2) COc1ccc(CN2CC(Oc3ccc(N4CCN(S(C)(=O)=O)CC4)nc3)C2)cc1 ... 6.47

I: CC(C)(C)c1noc(CN2CC(Oc3c(F)cc(C4CCN(S(C)(=O)=O)CC4)cc3F)C2)n1
II: CS(=O)(=O)N1CCN(c2ncc(OC3CN(Cc4ccc(C(F)(F)F)cc4)C3)cn2)CC1
query: Would you kindly point out which of I and II has the smaller pEC50 figure? Identify your pick by its label.
result: I
